Overview of recorded viability, T/C for various molecules
# Tested on: K98450-129-R-PDC complex spheroid growth, percent test/control
# PROCEDURE_SUMMARY: Anticancer human tumor K98450-129-R-PDC patient-derived colon adenocarcinoma cell line growth inhibition [RAS]
# EXPERIMENTAL_CONDITIONS: second compound 0.1 µM; first compound 0.00316 µM; hits give low values
I only need the number, in %, no unit after it.

Worked set:
MOLECULE | ASSAYED_SYSTEM | viability, T/C, %
C=CC(=O)Nc1cc(Nc2nccc(-c3cn(C)c4ccccc34)n2)c(OC)cc1N(C)CCN(C)C + C#Cc1c(F)ccc2cc(O)cc(-c3ncc4c(N5CC6CCC(C5)N6)nc(OCC56CCCN5CC(F)C6)nc4c3F)c12 | K98450-129-R-PDC complex spheroid growth, percent test/control | 107
O=C(c1ccc(F)c(F)c1Nc1ccc(I)cc1F)N1CC(O)([C@@H]2CCCCN2)C1 + C=CC(=O)N1CCN(c2nc(OCC3CCCN3C)nc3c(F)c(-c4nc(N)cc(C)c4C(F)(F)F)c(Cl)cc23)C(C)C1 | K98450-129-R-PDC complex spheroid growth, percent test/control | 55.2
O=C(c1ccc(F)c(F)c1Nc1ccc(I)cc1F)N1CC(O)([C@@H]2CCCCN2)C1 + C#Cc1c(F)ccc2cc(O)cc(-c3ncc4c(N5CC6CCC(C5)N6)nc(OCC56CCCN5CC(F)C6)nc4c3F)c12 | K98450-129-R-PDC complex spheroid growth, percent test/control | 113
CCN1CCN(Cc2ccc(Nc3ncc(F)c(-c4cc(F)c5nc(C)n(C(C)C)c5c4)n3)nc2)CC1 + C=CC(=O)N1CCN(c2nc(OCC3CCCN3C)nc3c(F)c(-c4nc(N)cc(C)c4C(F)(F)F)c(Cl)cc23)C(C)C1 | K98450-129-R-PDC complex spheroid growth, percent test/control | 60.2

Now look at this entry.
Supply viability, T/C value. Item: CC(C)n1nc(-c2ccc3oc(N)nc3c2)c2c(N)ncnc21 + C=CC(=O)N1CCN(c2nc(OCC3CCCN3C)nc3c(F)c(-c4nc(N)cc(C)c4C(F)(F)F)c(Cl)cc23)C(C)C1
46.1

* * *

# Test system: K98450-129-R-PDC complex spheroid growth, percent test/control
# PROCEDURE_SUMMARY: Anticancer human tumor K98450-129-R-PDC cell line growth inhibition [RAS];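 further: luminescence used as a proxy for viable cell amount; spheroids exposed to agents for seven days before the viability readout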
# EXPERIMENTAL_CONDITIONS: second compound 0.0949 µM; first compound 0.1 µM; hits give low values
METRIC_NAME: viability, T/C (%)
Only the number, expressed in %, is required.

COMPOUND | METRIC_NAME | UOM | READOUT_NUMBER
CCN1CCN(Cc2ccc(Nc3ncc(F)c(-c4cc(F)c5nc(C)n(C(C)C)c5c4)n3)nc2)CC1 + CCn1c(-c2cc(N3CCN(C)CC3)cnc2C(C)OC)c2c3cc(ccc31)-c1csc(n1)CC(NC(=O)C1CC1C)C(=O)N1CCCC(N1)C(=O)OCC(C)(C)C2 | viability, T/C | % | 14.1
CCC(CC)c1cc(NC2CCC(N)C2)n2nccc2n1 (stereo not drawn) + CCn1c(-c2cccnc2C(C)OC)c2c3cc(ccc31)N1CCOC(CC(NC(=O)C(C(C)C)N(C)C(=O)C3(F)CCN(C(=O)C#CC(C)(C)N(C)C)CC3)C(=O)N3CCCC(N3)C(=O)OCC(C)(C)C2)C1 | viability, T/C | % | 33.4

Turning now to a further record.
Check K98450-129-R-PDC complex spheroid growth, percent test/control data and give viability, T/C for Nc1ccn(C2OC(CO)C(O)C2(F)F)c(=O)n1 (stereo not drawn) + CCn1c(-c2cc(N3CCN(C)CC3)cnc2C(C)OC)c2c3cc(ccc31)-c1csc(n1)CC(NC(=O)C1CC1C)C(=O)N1CCCC(N1)C(=O)OCC(C)(C)C2 .
11.9

* * *

Overview of recorded viability, T/C for various compounds
# Tested on: K98450-129-R-PDC complex spheroid growth, percent test/control
# PROCEDURE_SUMMARY: Anticancer human tumor K98450-129-R-PDC cell line growth inhibition [RAS];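 further: luminescence used as a proxy for viable cell amount; spheroids exposed to agents for seven days before the viability readout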
# EXPERIMENTAL_CONDITIONS: second compound 0.03 µM; first compound 0.000949 µM; hits give low values
Unit % implied. Number only.

Reference set, count: 3
COMPOUND | READOUT_NUMBER
CC1(C)CCC(Nc2ncc(C(F)(F)F)c(-c3c[nH]c4c(P(C)(C)=O)c(C#N)ccc34)n2)CN1 (centres undefined) + CCn1c(-c2cccnc2C(C)OC)c2c3cc(ccc31)N1CCOC(CC(NC(=O)C(C(C)C)N(C)C(=O)C3(F)CCN(C(=O)C#CC(C)(C)N(C)C)CC3)C(=O)N3CCCC(N3)C(=O)OCC(C)(C)C2)C1 | 45
CC1(C)CCC(Nc2ncc(C(F)(F)F)c(-c3c[nH]c4c(P(C)(C)=O)c(C#N)ccc34)n2)CN1 (centres undefined) + CCn1c(-c2cc(N3CCN(C)CC3)cnc2C(C)OC)c2c3cc(ccc31)-c1csc(n1)CC(NC(=O)C1CC1C)C(=O)N1CCCC(N1)C(=O)OCC(C)(C)C2 | 54.1
CCc1c2c(nc3ccc(O)cc13)-c1cc3c(c(=O)n1C2)COC(=O)[C@]3(O)CC + CCn1c(-c2cc(N3CCN(C)CC3)cnc2C(C)OC)c2c3cc(ccc31)-c1csc(n1)CC(NC(=O)C1CC1C)C(=O)N1CCCC(N1)C(=O)OCC(C)(C)C2 | 53.4

Please report viability, T/C for the following compound: CCc1c2c(nc3ccc(O)cc13)-c1cc3c(c(=O)n1C2)COC(=O)[C@]3(O)CC + CCn1c(-c2cccnc2C(C)OC)c2c3cc(ccc31)N1CCOC(CC(NC(=O)C(C(C)C)N(C)C(=O)C3(F)CCN(C(=O)C#CC(C)(C)N(C)C)CC3)C(=O)N3CCCC(N3)C(=O)OCC(C)(C)C2)C1
32.8

* * *

# Tested on: K98450-129-R-PDC complex spheroid growth, percent test/control
# PROCEDURE_SUMMARY: Anticancer human tumor K98450-129-R-PDC cell line growth inhibition [RAS];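 further: luminescence used as a proxy for viable cell amount; spheroids exposed to agents for seven days before the viability readout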
# EXPERIMENTAL_CONDITIONS: second compound 0.000949 µM; first compound 0.1 µM; hits give low values
Consider the following compounds and their measured viability, T/C readings.
Kindly answer with a numeric value in %, unit omitted.

Consider the compound C[C@@H](NC(=O)c1ncnc(N)c1Cl)c1ncc(C(=O)Nc2cc(C(F)(F)F)c(Cl)cn2)s1 + CCn1c(-c2cc(N3CCN(C)CC3)cnc2C(C)OC)c2c3cc(ccc31)-c1csc(n1)CC(NC(=O)C1CC1C)C(=O)N1CCCC(N1)C(=O)OCC(C)(C)C2 . State its measured viability, T/C.
103

Supply reported viability, T/C belonging to this compound: CC(Nc1ccc2c(c1)OCCn1cc(N3C(=O)OCC3C(F)F)nc1-2)C(N)=O (centres undefined) + CCn1c(-c2cccnc2C(C)OC)c2c3cc(ccc31)N1CCOC(CC(NC(=O)C(C(C)C)N(C)C(=O)C3(F)CCN(C(=O)C#CC(C)(C)N(C)C)CC3)C(=O)N3CCCC(N3)C(=O)OCC(C)(C)C2)C1
70.5

For the compound C=CC(=O)N1CCN(c2nc(OCC3CCCN3C)nc3c(F)c(-c4nc(N)cc(C)c4C(F)(F)F)c(Cl)cc23)C(C)C1 (centres undefined) + CCn1c(-c2cccnc2C(C)OC)c2c3cc(ccc31)N1CCOC(CC(NC(=O)C(C(C)C)N(C)C(=O)C3(F)CCN(C(=O)C#CC(C)(C)N(C)C)CC3)C(=O)N3CCCC(N3)C(=O)OCC(C)(C)C2)C1 , report viability, T/C.
55.4

Give viability, T/C for the following compound: CC(=O)OC12COC1CC(O)C1(C)C(=O)C(O)C3=C(C)C(OC(=O)C(O)C(NC(=O)OC(C)(C)C)c4ccccc4)CC(O)(C(OC(=O)c4ccccc4)C21)C3(C)C (centres undefined) + CCn1c(-c2cc(N3CCN(C)CC3)cnc2C(C)OC)c2c3cc(ccc31)-c1csc(n1)CC(NC(=O)C1CC1C)C(=O)N1CCCC(N1)C(=O)OCC(C)(C)C2
78.6

* * *

# Test system: K98450-129-R-PDC complex spheroid growth, percent test/control
# PROCEDURE_SUMMARY: Anticancer human tumor K98450-129-R-PDC cell line growth inhibition [RAS];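 further: luminescence used as a proxy for viable cell amount; spheroids exposed to agents for seven days before the viability readout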
# EXPERIMENTAL_CONDITIONS: second compound 1 µM; first compound 0.1 µM; hits give low values
METRIC_NAME: viability, T/C (%)
Express the result in % but write the number alone.

MOLECULE | UOM | viability, T/C
O=C(c1ccc(F)c(F)c1Nc1ccc(I)cc1F)N1CC(O)([C@@H]2CCCCN2)C1 + C#Cc1c(F)ccc2cc(O)cc(-c3ncc4c(N5CC6CCC(C5)N6)nc(OCC56CCCN5CC(F)C6)nc4c3F)c12 | % | 77.3
CC(=O)OC12COC1CC(O)C1(C)C(=O)C(O)C3=C(C)C(OC(=O)C(O)C(NC(=O)OC(C)(C)C)c4ccccc4)CC(O)(C(OC(=O)c4ccccc4)C21)C3(C)C (stereo not given) + C=CC(=O)N1CCN(c2nc(OCC3CCCN3C)nc3c(F)c(-c4nc(N)cc(C)c4C(F)(F)F)c(Cl)cc23)C(C)C1 | % | 18.5
C=CC(=O)Nc1cc(Nc2nccc(-c3cn(C)c4ccccc34)n2)c(OC)cc1N(C)CCN(C)C + C#Cc1c(F)ccc2cc(O)cc(-c3ncc4c(N5CC6CCC(C5)N6)nc(OCC56CCCN5CC(F)C6)nc4c3F)c12 | % | 95
CC1(O)CCCC1n1c(=O)c(C(F)F)cc2cnc(NC3CCN(S(C)(=O)=O)CC3)nc21 (stereo not given) + C=CC(=O)N1CCN(c2nc(OCC3CCCN3C)nc3c(F)c(-c4nc(N)cc(C)c4C(F)(F)F)c(Cl)cc23)C(C)C1 | % | 33.7
CC(C)n1nc(-c2ccc3oc(N)nc3c2)c2c(N)ncnc21 + C=CC(=O)N1CCN(c2nc(OCC3CCCN3C)nc3c(F)c(-c4nc(N)cc(C)c4C(F)(F)F)c(Cl)cc23)C(C)C1 | % | 17.6
NC1c2ccccc2OC12CCN(c1cnc3c(N4CCCc5ncccc54)n[nH]c3n1)CC2 (stereo not given) + C=CC(=O)N1CCN(c2nc(OCC3CCCN3C)nc3c(F)c(-c4nc(N)cc(C)c4C(F)(F)F)c(Cl)cc23)C(C)C1 | % | 9.4
CC(Nc1ccc2c(c1)OCCn1cc(N3C(=O)OCC3C(F)F)nc1-2)C(N)=O (stereo not given) + C#Cc1c(F)ccc2cc(O)cc(-c3ncc4c(N5CC6CCC(C5)N6)nc(OCC56CCCN5CC(F)C6)nc4c3F)c12 | % | 103
Cc1nc(N2CCC3(CC2)COC(C)C3N)c(CO)nc1Sc1ccnc(N)c1Cl (stereo not given) + C=CC(=O)N1CCN(c2nc(OCC3CCCN3C)nc3c(F)c(-c4nc(N)cc(C)c4C(F)(F)F)c(Cl)cc23)C(C)C1 | % | 15.2
Nc1ccn(C2OC(CO)C(O)C2(F)F)c(=O)n1 (stereo not given) + C=CC(=O)N1CCN(c2nc(OCC3CCCN3C)nc3c(F)c(-c4nc(N)cc(C)c4C(F)(F)F)c(Cl)cc23)C(C)C1 | % | 16.9

Supply recorded viability, T/C for CC(Nc1ccc2c(c1)OCCn1cc(N3C(=O)OCC3C(F)F)nc1-2)C(N)=O (stereo not given) + C=CC(=O)N1CCN(c2nc(OCC3CCCN3C)nc3c(F)c(-c4nc(N)cc(C)c4C(F)(F)F)c(Cl)cc23)C(C)C1 here.
28.2
